Tested on: Lefty1
assayDetails: Lefty1 binders on small-molecule microarrays, primary screen, biochemical, small-molecule microarray, 635/667 nm fluorescence (AID 1139)
conditionDetails: small-molecule microarray binding, fluorescence 635/667; higher = more signal
Values of composite z-score greater than or equal to 0.8 map to satisfied; values below map to not satisfied.

COC(=O)CCCCCCC(=O)Nc1ccc(NC(=O)CCCC[P+](c2ccccc2)(c2ccccc2)c2ccccc2)cc1    satisfied
CC[C@H]1C2=C3C(CC[C@H]4C(OCc5ccc(F)cc5C(F)(F)F)OC[C@](C)([C@@H]34)N(C(=O)OC(C)(C)C)C2)C(COC)C1COC (some centres not stated)    not satisfied
C=CCC(OC(C)=O)[C@@H]1[C@@H](N(Cc2cccc3ccccc23)C(=O)c2cccc3ccccc23)c2cc(OCCCO)ccc2N1C(=O)c1ccc(-c2ccccc2)cc1 (some centres not stated)    not satisfied
[N-]=[N+]=NCc1ccccc1C[C@]1(C(N)=O)N=C(c2ccc(OCCCO)cc2)O[C@H]1c1ccccc1    not satisfied
O=C(CS)NCCCCCCNC(=O)[C@H]1C[C@H]2C(=O)N[C@@H](Cc3ccccc3)C(=O)N2[C@H]1c1ccc(O)cc1    satisfied

Turning to the following compound.
## Input # check: composite z-score of `C[C@@H]1ON(c2ccc(C(=O)OC(C)(C)C)cc2)[C@H](c2ccc(O)cc2)[C@H]1C(=O)N1C(=O)OC[C@H]1Cc1ccccc1` is greater than or equal to 0.8
## Output satisfied
